Numbers sourced from the supplement of paper PMC12764529.

Assay: folding stability dG unfold from trypsin proteolysis; higher = more stable
In this scheme, each record receives a class according to its folding stability dG unfold; the ranges are class 1 (below 0.4 kcal/mol), class 2 (0.4 kcal/mol to below 2 kcal/mol), class 3 (2 kcal/mol or more)

The following sequences have reported results that may help.
{"columns": ["Primary sequence", "Discrete label"],
 "data": [
  ["MEITITETENGYRVEVKIEITVIDPKTGEPVPLEIPVEAFVPASDPDPEKAAKEAAEKALEEVLKALPEGLS [r1_414_JUSTAS]", "class 3"],
  ["SAGKMVKITITGPADKIKELLKKLFPNAEVEVKKVNGKLVFYFKPGEEVIEIEITDKDGNKLTIKIEKVSAG [r5_123_TrROS_Hall]", "class 3"],
  ["SAGGSAGGSMSTTETTVTEVTITVRSDGKVSREVKVTVTTTTTITPAGGTATVTTTTTRTPLESAGGSAGGS [r12_409_JUSTAS]", "class 2"],
  ["SAGGSAGGSAGGKKIKILVKIKDLKKLKGLKPGDLALIEIEVEVKPEKKTEKKYTYKKKSAGGSAGGSAGGS [r10_1233_TrROS_Hall]", "class 2"],
  ["SAGKETVKLVVVNKETNKVVEVTFNKDGEIVSVKVFEVKPAPPPPPVELSEEQLVKTKDGKWRSLEELKSAG [r5_685_TrROS_Hall]", "class 1"]
]}

Band for the recorded folding stability dG unfold of SAGGPSVDIDPRLNEDGTPYVLATLHIVPVHSDGSSSSADIPVVFDSLDDLLAFVKAISPGSAKVSLSAGGS [r16_652_TrMRF] ? class 2

Lab log: SAGGSAPPNWRRIEITFYIPPGQPTVSELADHIAKRIGFPVTGVEIDKVERNPDGAYEVKVSIIVPSAGGSA [r15_654_TrROS] — assign folding stability dG unfold category class 3

In plain terms, what class is SANWHRFTIEAWVPVRDPNGKPIRPEQVEEQAERIANELWPRGFPIKDVTVEQHPDGWVRITATIEVPDSAG [r14_470_TrROS] ? class 3

Any idea which band SAGGSAGGEPITPEEAREIADYFMEEHGAKEVEVKVDPNGGIIKIDVTHPNDGRKYEREIQIEKSAGGSAGG [r6_550_TrROS] is in? class 1

Band for the recorded folding stability dG unfold of SAGGSAGGSKPDEVEVIEIKVPPGARVRLPDGSVVEIKPGDPNTTYRIVVDKKNKKITIEPLDSAGGSAGGS [r12_338_TrROS_Hall] ? class 2

Could you place SAGGSAGGSAGSLTFQLPNGTEITVTEITLEIKLPNGDVILIKITVDPEPPVTTEVTFVNSAGGSAGGSAGG [r11_804_JUSTAS] in its proper category? Many thanks. class 2

Categorize the following entry: SAGGMKLTPEELKGKTIRIRIKVNGKEYEIEAKVVEVDGELYIEVKIINKETKEEKTITIPLDDVEIVSAGG [r13_289_TrROS_Hall] class 3

Bin this entry: SAGGSAEEEVVETEVVYDPETKELHVRTKVFKPKPEITIEVDMSLEEVKALLEELTGRKIDRVEIKSAGGSA [r15_101_TrROS_Hall] class 2

---

Assay: folding stability dG unfold from chymotrypsin proteolysis; higher = more stable
Measured endpoint: folding stability dG unfold (kcal/mol)
Supply the numeric figure in kcal/mol, leaving out any unit text.

// worked examples, folding stability dG unfold included
{"columns": ["Primary sequence", "Scale unit", "folding stability dG unfold"],
 "data": [
  ["SAGGVPVPPEVEYPISPEAVELAEKLAPELGAKNFKVTVVSVEPGYITVEITLPDTGKTVTVTIPLGSAGGS [r16_281_JUSTAS]", "kcal/mol", 1.99],
  ["SAGGSAGGSNWVEIDIPHDDGRDIKITMWPDGYMQIEYPNGKPVYEIPVPPNMSIDEIAERILSAGGSAGGS [r12_990_TrROS]", "kcal/mol", 0.498],
  ["SAGWISPKQLRHALRNGKPIKIYMPNPQNKEHAKNWLRQETGLPKEEQKELLKDVKIEPMPPNDPNFKKSAG [r5_368_TrROS]", "kcal/mol", 0.497]
]}

State its folding stability dG unfold for this sequence: SAGGTRTIWFPVDDIREALPPDNIKKVEVEPVGPENNWYKVTIEFPDYKIEIQYYPEEPGMFMVTITDSAGG [r13_942_TrROS] 2.71

Read the entry SAGGMKVTVTEDGSSSKVTITIKDPKTGIEKTYTATATVLPDGTVVYTITYPDGSKKTIPSSELELSSAGGS [r16_154_JUSTAS] and write its reported folding stability dG unfold. 4.02

Determine from records and report folding stability dG unfold for SAGGSAVRIKVWPPNGKEQWIPIPSSMTPSTVQEMAENLADDWQEQNGNKNVKVEVDPDNGWIRIRSAGGSA [r15_33_TrROS] 0.197

Read the entry SAGGSAGGGMGPASFYIVTVDPNNPNVTKVESLSPSVDISLYRKKPFPIKTFSASNIEKLLKELSAGGSAGG [r6_864_JUSTAS] and write its reported folding stability dG unfold. 0.791

Kindly indicate its recorded folding stability dG unfold. Item: SAGGSAGGSAGGMRRVTIWFPIPEDEEITFKLPGNGVEVEIEPDKGNGFFRITVYLPDGSAGGSAGGSAGGS [r10_1138_TrROS] 2.07

Identify folding stability dG unfold associated with the sequence SAGGSAGGSAGSVTVSSTTTTLTDSMRVITETFTSPDLVKVTFVPTSNPEDVTVTTLPSASAGGSAGGSAGG [r11_1046_JUSTAS] 1.04
